test: in vivo; conditions: mouse, in vivo
quantity kind: LD50 at 336 h (mg/kg)

Cc1cn([C@H]2C[C@H](N=[N+]=[N-])[C@@H](CO)O2)c(=O)[nH]c1=O
10

====

experiment: in vivo; settings: mouse, in vivo, 10 mg/kg
quantity kind: mortality at 336 h (%)

Cc1cn([C@H]2C[C@H](N=[N+]=[N-])[C@@H](CO)O2)c(=O)[nH]c1=O
50
